- test.summary: Cytotoxicity against human A549 cells assessed as cell viability recovery at up to 9.2 uM by MTT assay relative to untreated control
- Format: cell-based
- test.context: read-out: Activity
experimental.endpoint: viability
Provide the measurement as a number trailed by its unit.

Reported viability for CCCCNc1nc(NCCCC)c2ccccc2n1 : what is it?
100%

* * *

- test.summary: Cytotoxicity against human A549 cells assessed as cell viability recovery at 1.5 uM by MTT assay relative to untreated control
- Type: cell-based
- test.context: read-out: Activity
experimental.endpoint: viability at 1.5 µM (%)
Enter your answer as a number in %; do not include the unit.

Can you share its viability at 1.5 µM? I mean this compound: c1ccc(CNc2nc(NCc3ccccc3)c3ccccc3n2)cc1
93.2
